Reference for the values: patent US20260056186A1

target: T1, BAFF (Sino biological, 10056-HNCH) (UniProt Q9Y275 134-285, biotinylated in the blocking ELISA (site not stated)); experiment: ELISA, BAFF coated at 1 ug/mL, anti-human IgG-HRP
T1 construct: also called BLyS
T1 sequence (Q9Y275 134-285 limits assumed): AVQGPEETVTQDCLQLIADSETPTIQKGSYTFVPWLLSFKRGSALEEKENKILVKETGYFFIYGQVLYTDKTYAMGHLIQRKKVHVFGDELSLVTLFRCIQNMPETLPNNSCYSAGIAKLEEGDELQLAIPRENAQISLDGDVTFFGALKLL
Measure name: pEC50
Quick note: pEC50 means taking -log10 of the concentration in moles per liter.

See these solved cases before continuing.
Binder | pEC50
TACI-12-Fc (Fc fusion, TACI-9 truncated C-terminally by 3 amino acids, fused directly to Fc) SLSCRKEQGKFYDHLLRDCISCASICGQHPKQCAYFCEDKTHTCPPCPAPEAEGAPSVFLFPPKPKDTLMISRTPEVTCVVVDVSHEDPEVKFNWYVDGVEVHNAKTKPREEQYNSTYRVVSVLTVLHQDWLNGKEYKCKVSNKALPSSIEKTISKAKGQPREPQVYTLPPSRDELTKNQVSLTCLVKGFYPSDIAVEWESNGQPENNYKTTPPVLDSDGSFFLYSKLTVDKSRWQQGNVFSCSVMHEALHNHYTQKSLSLSPGK | 9.05
TACI-10-Fc (Fc fusion, TACI-9 truncated C-terminally by 1 amino acid, fused directly to Fc) SLSCRKEQGKFYDHLLRDCISCASICGQHPKQCAYFCENKDKTHTCPPCPAPEAEGAPSVFLFPPKPKDTLMISRTPEVTCVVVDVSHEDPEVKFNWYVDGVEVHNAKTKPREEQYNSTYRVVSVLTVLHQDWLNGKEYKCKVSNKALPSSIEKTISKAKGQPREPQVYTLPPSRDELTKNQVSLTCLVKGFYPSDIAVEWESNGQPENNYKTTPPVLDSDGSFFLYSKLTVDKSRWQQGNVFSCSVMHEALHNHYTQKSLSLSPGK | 9.25

Moving on to the next binder.
Requested read-out: pEC50. Entry: TACI-11-Fc (Fc fusion) SLSCRKEQGKFYDHLLRDCISCASICGQHPKQCAYFCENDKTHTCPPCPAPEAEGAPSVFLFPPKPKDTLMISRTPEVTCVVVDVSHEDPEVKFNWYVDGVEVHNAKTKPREEQYNSTYRVVSVLTVLHQDWLNGKEYKCKVSNKALPSSIEKTISKAKGQPREPQVYTLPPSRDELTKNQVSLTCLVKGFYPSDIAVEWESNGQPENNYKTTPPVLDSDGSFFLYSKLTVDKSRWQQGNVFSCSVMHEALHNHYTQKSLSLSPGK
9.23
